Attribute: normalized growth
Test: chemical genetic growth profiling, strain panel (AID 1159580);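 further: tested at 20 µM; growth read once vehicle control cultures reached saturation at 30 °C; 1 = growth at the plate median or of vehicle wells; lower values mean less growth of the strain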
Details: S. cerevisiae deletion strains, growth OD, locus YDR101C, strain arx1, stronger effect = lower value
Among all 5,500 compounds or so, about 2,000 (36%) were called active. About 18% were inconclusive and are not listed. This is one part of the list.
Form field (numeric): enter value without unit.

Example entries begin here.
Compound: OC[C@H]1O[C@@H](O[C@H]2[C@H](O)[C@@H](O)[C@@H](O)O[C@@H]2CO)[C@H](O)[C@@H](O)[C@@H]1O
Property: normalized growth
Test Value: 1.02

Compound: COC(=O)c1c(OC)cc2c(c1C)Oc1c(Cl)c(O)c(Cl)c(C)c1C(=O)O2
Property: normalized growth
Test Value: 0.965

# normalized growth lookup, item CC(C)CC(NC(=O)OCC1c2ccccc2-c2ccccc21)C(=O)O (centres undefined)
1.01

Also, OC[C@H]1O[C@@](CO)(O[C@@H]2O[C@H](CO)[C@@H](O)[C@H](O)[C@H]2O)[C@@H](O[C@@H]2O[C@H](CO)[C@@H](O)[C@H](O)[C@H]2O)[C@@H]1O please.
1.01

###

Assay: chemical genetic growth profiling, strain panel (AID 1159580);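 further: tested at 20 µM; growth read once vehicle control cultures reached saturation at 30 °C; 1 = growth at the plate median or of vehicle wells; lower values mean less growth of the strain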
Conditions: S. cerevisiae deletion strains, growth OD, locus YNL209W, strain ssb2, stronger effect = lower value
The campaign covered roughly 5,500 compounds. About 2,000 (36%) were called active. Roughly 18% stayed inconclusive and do not appear here. This is one part of the list.
Attribute: normalized growth
Form field (numeric): enter value without unit.

Example entries begin here.
Molecule: CC(CCc1ccccc1)NCC(O)c1ccc(O)c(C(N)=O)c1 (stereo unspecified)
Test Value: 1.01

Molecule: CCN(CC)CCOCCOC(=O)C1(c2ccccc2)CCCC1
Test Value: 0.998

Molecule: CC(C)(C)NCC(O)c1ccc(O)c(CO)c1 (stereo unspecified)
Test Value: 1.02

Molecule: CC(CCC(=O)O)[C@H]1CCC2C3CC[C@@H]4C[C@H](O)CC[C@]4(C)C3C=C[C@@]21C (stereo partly specified)
Test Value: 0.99

Molecule: CC(C)(C)NC[C@H](O)c1ccc(O)c(CO)c1
Test Value: 1.02

Kindly consider the entry below.
# normalized growth lookup, item N[C@@H](CCC(=O)N[C@@H](CS)C(=O)NCC(=O)O)C(=O)O
1.01

###

Experiment: chemical genetic growth profiling, strain panel (AID 1159580);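 further: tested at 20 µM; growth read once vehicle control cultures reached saturation at 30 °C; 1 = growth at the plate median or of vehicle wells; lower values mean less growth of the strain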
Details: S. cerevisiae deletion strains, growth OD, locus YBR171W, strain sec66
In all, about 5,500 compounds went through this assay and about 2,000 (36%) were called active. About 18% were inconclusive and are not listed. Rule as the data show it: active = normalized growth mostly below about 0.91 (no sharp cut-off); inconclusive = no clear call, values can overlap the other calls; inactive = mostly above about 0.92. The list shows a part of the results.
Returns: one label drawn from Y (active), N (inactive)

Compound: Oc1cccc(O)c1
Label Class: N

Compound: CC(=O)Nc1ccc(S(=O)(=O)Nc2onc(C)c2C)cc1
Label Class: N

Compound: CNNC
Label Class: N

Compound: CC[N+](C)(C)c1cccc(O)c1
Label Class: N

Compound: COC(=O)c1c(OC)cc2c(c1C)Oc1c(Cl)c(O)c(Cl)c(C)c1C(=O)O2
Label Class: N

I'd appreciate the recorded outcome for CC(N=C(NC#N)Nc1ccncc1)C(C)(C)C (configuration not stated) from this test.
N

Also, C/C=C\C1=C(C(=O)O)N2C(=O)C(NC(=O)C(N)c3ccc(O)cc3)C2SC1 (configuration not stated) please.
N
